# Tested on: Wolbachia pipientis
# testSummary: Anti-Wolbachia Cell-Based Screen
# Type: functional
# Parameters: scale not given: in the data most compounds retested in dose-response had high values
# particulars: 5 µM
Screen size: about 48,000 compounds; about 13,000 (27%) showed an effect of 50% or more. Some of the results follow.

- compound: "Cc1nc2[nH]cc(C(=O)N3CCCCC3c3ccc(F)cc3)c(=O)n2n1 (centres undefined)"
  Percent Effect (%): -1.637
- compound: "CC(C)Cn1nnnc1SC(C(=O)NCc1cccnc1)C(C)C (centres undefined)"
  Percent Effect (%): 111.1
- compound: "CC(C)(C)c1ncc(C(=O)NC(C(N)=O)c2ccccc2)s1 (centres undefined)"
  Percent Effect (%): 80.78
- compound: "O=C(COC[C@@]12CCC[C@@H]1CN(C1CCC1)C2)N1CCCC1.O=C(O)C(F)(F)F"
  Percent Effect (%): 106.1
- compound: "CC(C)(CNC(=O)c1ccco1)CNC(=O)c1ccco1"
  Percent Effect (%): -33.3
- compound: "CC(C)(C)c1ncc(C(=O)NCCNC(=O)c2ccco2)s1"
  Percent Effect (%): 107.2
- compound: "CN(CCc1cn[nH]c1)Cc1nc(Cc2cccc(F)c2)no1"
  Percent Effect (%): -20.63
- compound: "Cc1ccc(CN2CC[C@H]3OCC[C@@]3(COCC(=O)N(C)C)C2)s1.O=C(O)C(F)(F)F"
  Percent Effect (%): -46.75
- compound: "COc1ccnc(N2CCCN(c3nc(C4CC4)ns3)CC2)n1"
  Percent Effect (%): 2.276
- compound: "O=C(CCc1cc(Cl)no1)N1CCCCC1CCN1CCOCC1 (centres undefined)"
  Percent Effect (%): -7.331
- compound: "CC(C)C(Sc1nnnn1C1CC1)C(=O)NCc1ccccc1 (centres undefined)"
  Percent Effect (%): 90.27
- compound: "CN(Cc1cc(-c2cccnc2)no1)C(=O)[C@@H]1CSCN1C"
  Percent Effect (%): -21.19
- compound: "CCOCC(=O)N1CSCC1C(=O)N(C)Cc1ccco1 (centres undefined)"
  Percent Effect (%): 113.6
- compound: "c1ccc(-c2nc3c(c(NCCCn4cncn4)n2)CCNCC3)nc1"
  Percent Effect (%): -4.021

====

Quick reference for Percent Effect among some compounds
# Tested on: Wolbachia pipientis
# testSummary: Anti-Wolbachia Cell-Based Screen
# Format: functional
# Design: scale not given: in the data most compounds retested in dose-response had high values
# particulars: 5 µM
Among all 48,000 compounds or so, about 13,000 (27%) showed an effect of 50% or more. Some of the results follow.

- compound: "N#Cc1ccc(NCCC2CCN(CC(F)(F)F)CC2)nc1"
  Percent Effect: "-12.29%"
- compound: "CC(=O)N1CCCCC1c1nc2c(c(NC3CCCC3)n1)CN(C)CC2 (configuration not stated)"
  Percent Effect: "71.52%"
- compound: "O[C@H]1[C@H](n2cc(-c3ccccc3)nn2)c2ccccc2C12CCNCC2"
  Percent Effect: "-3.237%"
- compound: "O=C(c1ccncc1)N1CCC2(CC1)CC(Oc1cccnc1)CO2 (configuration not stated)"
  Percent Effect: "-1.534%"
- compound: "Fc1cc(CNc2nncs2)ccc1Cl"
  Percent Effect: "-25.14%"
- compound: "O=C(c1coc(-c2ccccc2)n1)N1CCCCC1"
  Percent Effect: "-26.2%"
- compound: "CCN1N=C(C(=O)N2CCCC(c3nc(C)cs3)C2)CCC1=O (configuration not stated)"
  Percent Effect: "85.99%"
- compound: "CC(Cc1ccco1)NC(=O)C1=NN(c2ccccc2)C(=O)CC1 (configuration not stated)"
  Percent Effect: "-5.577%"
- compound: "CCCn1cc(C(=O)N2CCOC(c3nc(-c4cccs4)no3)C2)cn1 (configuration not stated)"
  Percent Effect: "93.77%"
- compound: "O=C(c1ccnnc1)N1CCC2(CC1)CCN(C(=O)c1cccnc1)C2"
  Percent Effect: "96.42%"
- compound: "CCc1nc(-c2noc3ccc(C(=O)N(C)CCOC)cc23)co1"
  Percent Effect: "2.681%"
- compound: "CCC(CO)NC(=O)Nc1cc(F)ccc1SCC(F)F (configuration not stated)"
  Percent Effect: "1.4%"

====

# Test system: Wolbachia pipientis
# testSummary: Anti-Wolbachia Cell-Based Screen
# Type: functional
# Design: scale not given: in the data most compounds retested in dose-response had high values
# particulars: 5 µM
The whole screen tested about 48,000 compounds, of which about 13,000 (27%) showed an effect of 50% or more. This is one part of the list.
Listed here: items and their measured Percent Effect.

- molecule: "CCn1c(CNC(=O)c2ccc(N(C)C)nc2)nc2ccccc21"
  targetUnderTest: "Wolbachia pipientis"
  Percent Effect, %: 8.635
- molecule: "CN(Cc1ccoc1)c1ccc(-c2nccn2C)nn1"
  targetUnderTest: "Wolbachia pipientis"
  Percent Effect, %: -4.933
- molecule: "Cc1cc(-c2nnn(CCNS(C)(=O)=O)n2)ccc1F"
  targetUnderTest: "Wolbachia pipientis"
  Percent Effect, %: -4.563
- molecule: "O=C1CCCN1CCCN1CCCCC1Cn1cncn1 (stereo not given)"
  targetUnderTest: "Wolbachia pipientis"
  Percent Effect, %: 3.397
- molecule: "CCOc1ccc(Cl)c(C(=O)NC(C(N)=O)c2ccccc2)n1 (stereo not given)"
  targetUnderTest: "Wolbachia pipientis"
  Percent Effect, %: -8.916
- molecule: "c1ccc(-c2noc(CCCN3CCCC3Cn3cncn3)n2)cc1 (stereo not given)"
  targetUnderTest: "Wolbachia pipientis"
  Percent Effect, %: 100.9
- molecule: "CCSCCNC(=O)c1cnc(-c2ccccc2)nc1O"
  targetUnderTest: "Wolbachia pipientis"
  Percent Effect, %: -4.027
- molecule: "COCCc1noc(CN(C)c2nc(C)nc(C)c2C)n1"
  targetUnderTest: "Wolbachia pipientis"
  Percent Effect, %: 89.33
- molecule: "Cc1nc(NC(=O)NCc2nc3cccc(C)c3n2C)oc1C"
  targetUnderTest: "Wolbachia pipientis"
  Percent Effect, %: 43.9
- molecule: "CSCCC(NC(=O)c1nc(SC)ncc1Cl)C(=O)O (stereo not given)"
  targetUnderTest: "Wolbachia pipientis"
  Percent Effect, %: 130.6
- molecule: "CCN(Cc1ccccc1)C(=O)CN1CCCCC1Cn1cncn1 (stereo not given)"
  targetUnderTest: "Wolbachia pipientis"
  Percent Effect, %: -8.051
- molecule: "O=C(c1ccccn1)C1CCCN(c2nccc(CCC(F)(F)F)n2)C1 (stereo not given)"
  targetUnderTest: "Wolbachia pipientis"
  Percent Effect, %: "2e-14"
- molecule: "COc1cc(C(C)=O)ccc1OCC(=O)N(CC(C)C#N)C1CC1 (stereo not given)"
  targetUnderTest: "Wolbachia pipientis"
  Percent Effect, %: -5.755
- molecule: "CC(C)(NS(C)(=O)=O)c1nc(-c2ccc(F)c(F)c2)no1"
  targetUnderTest: "Wolbachia pipientis"
  Percent Effect, %: 108
- molecule: "CSc1ncc(Cl)c(C(=O)NC(Cc2ccccc2)C(=O)O)n1 (stereo not given)"
  targetUnderTest: "Wolbachia pipientis"
  Percent Effect, %: 98.91

====

Below, each of the compounds is paired with its reported Percent Effect value.
# Test system: Wolbachia pipientis
# testSummary: Anti-Wolbachia Cell-Based Screen
# Assay type: functional
# Design: scale not given: in the data most compounds retested in dose-response had high values
# particulars: 5 µM
The campaign covered roughly 48,000 compounds. About 13,000 (27%) showed an effect of 50% or more. The list shows a part of the results.

- compound: "CC(C)(N)C(=O)N1CCCC1c1cncc(Oc2ccccc2)n1 (stereo unspecified)"
  Percent Effect / %: 115.4
- compound: "Cc1noc([C@@H]2C[C@H](NS(=O)(=O)Cc3ccccc3)CN2C)n1"
  Percent Effect / %: -2.99
- compound: "CN1CCN(c2cnn(Cc3ccc(S(C)(=O)=O)cc3)c(=O)c2)CC1"
  Percent Effect / %: 4.016
- compound: "Cc1ccc(CN2CCC3(CC2)CCN(Cc2ccoc2)CC3)cc1.O=C(O)C(F)(F)F.O=C(O)C(F)(F)F"
  Percent Effect / %: 17.41
- compound: "COc1ncccc1CNC(=O)C1=NN(c2ccccc2)C(=O)CN1"
  Percent Effect / %: 17.13
- compound: "CS(=O)(=O)N1CCOCC2(CN(Cc3ccsc3)CCO2)C1.O=C(O)C(F)(F)F (stereo unspecified)"
  Percent Effect / %: -5.064

====

# System: Wolbachia pipientis
# testSummary: Anti-Wolbachia Cell-Based Screen
# Assay type: functional
# Parameters: scale not given: in the data most compounds retested in dose-response had high values
# particulars: 5 µM
The campaign covered roughly 48,000 compounds. About 13,000 (27%) showed an effect of 50% or more. The list shows a part of the results.

- molecule: "O=C(c1ccco1)N1CCC(n2cc(-c3ccsc3)nn2)CC1"
  Percent Effect, %: 0.1659
- molecule: "CN(C)C[C@H]1C[C@@H](CO)CN(C(=O)c2cc(=O)[nH]c3cc(F)ccc23)C1"
  Percent Effect, %: -10.33
- molecule: "O=C(C1CCCCC1)N1CCC(n2nc(-c3ccco3)ccc2=O)CC1"
  Percent Effect, %: 79.69
- molecule: "COCCN(C)C[C@H]1C[C@H](CO)CN(C(=O)c2ccn(C)c(=O)c2)C1"
  Percent Effect, %: 59.73
- molecule: "CN(C)C(C(=O)N1Cc2ccccc2C1)c1ccccc1F (configuration not stated)"
  Percent Effect, %: -6.272
- molecule: "O=C(c1cccs1)N1CCC(Cn2nc(-c3ccco3)ccc2=O)CC1"
  Percent Effect, %: -6.925
- molecule: "CCn1c(CN(C)C(=O)c2ccc(OC)nc2)nc2ccccc21"
  Percent Effect, %: -6.401
- molecule: "CC(C)(C)C(=O)N1CCC(n2cc(C3(O)CCCC3)nn2)CC1"
  Percent Effect, %: -19.86
- molecule: "O=C(c1csc(-c2ccco2)n1)N1CCN2CCCCC2C1 (configuration not stated)"
  Percent Effect, %: -12.72
- molecule: "O=C(C1CSc2ccccc2O1)N1CCN(CCO)CC1 (configuration not stated)"
  Percent Effect, %: -0.8425
- molecule: "Cc1oc(-c2ccco2)nc1CC(=O)N1CCC(C(O)C(F)(F)F)CC1 (configuration not stated)"
  Percent Effect, %: 3.492
- molecule: "Cc1ccc(CC(=O)N2CCCC(c3n[nH]c4nccnc34)C2)cc1 (configuration not stated)"
  Percent Effect, %: 102

The reported numbers originate from ChEMBL document CHEMBL3988442.
